Give measured pIC50 for each item. Keep answers brief.
- experimental_details: Cytotoxicity against human PC3 cells assessed as growth inhibition after 96 hrs by SRB assay
- Assay type: functional, cell-based
- applied_conditions: PC-3, 96 h
Numbers only, as −log10 of the molar value.

Some entries whose results are on file:
C=C(C)[C@@H]1CC[C@]2(C(=O)O)CC[C@]3(C)[C@H](CC[C@@H]4[C@@]5(C)CC[C@H](OC(=O)C6CCNCC6)C(C)(C)[C@@H]5CC[C@]43C)[C@@H]12	5.66
C=C(C)[C@@H]1CC[C@]2(C(=O)O)CC[C@]3(C)[C@H](CC[C@@H]4[C@@]5(C)CC[C@H](NC(=O)C6CCCNC6)C(C)(C)[C@@H]5CC[C@]43C)[C@@H]12 (stereo not given in full)	5.89
C=C(C)[C@@H]1CC[C@]2(C(=O)O)CC[C@]3(C)[C@H](CC[C@@H]4[C@@]5(C)CC[C@H](NC(=O)CCC6CCNCC6)C(C)(C)[C@@H]5CC[C@]43C)[C@@H]12	5.47

Turning now to a further compound:
// pIC50 lookup, compound = C=C(C)[C@@H]1CC[C@]2(C(=O)O)CC[C@]3(C)[C@H](CC[C@@H]4[C@@]5(C)CC[C@H](NC(=O)C6CCCN6)C(C)(C)[C@@H]5CC[C@]43C)[C@@H]12 (stereo not given in full) , result: 4.69
